Provide the reported half-life of each item.
- assay-summary: Half life in Sprague-Dawley rat plasma at 5 mg/kg, iv by LC-MS/MS analysis
- Format: ADME, organism-based
- Design: dose 5 mg/kg, route intravenous
Answers are plain numbers, in h.

Give me half-life for each of these compounds, listed below.
1. CC(=O)O[C@@]12CO[C@@H]1C[C@H](O)[C@@]1(C)C(=O)[C@H](O)C3=C(C)[C@@H](OC(=O)[C@H](O)[C@@H](NC(=O)OC(C)(C)C)c4ccccc4)C[C@@](O)([C@@H](OC(=O)c4ccccc4)[C@H]21)C3(C)C.O.O.O [DOCETAXEL]
2. CC(=O)O[C@@]12CO[C@@H]1C[C@H](O)[C@@]1(C)C(=O)[C@H](O)C3=C(C)[C@@H](OC(=O)[C@H](O)[C@@H](NC(=O)OC(C)(C)C(F)F)c4ccc(F)cc4)C[C@@](O)([C@@H](OC(=O)c4ccccc4)[C@H]21)C3(C)C
3. CC(=O)O[C@@]12CO[C@@H]1C[C@H](O)[C@@]1(C)C(=O)[C@H](O)C3=C(C)[C@@H](OC(=O)[C@H](O)[C@@H](NC(=O)OC(C)(C)CF)c4ccccc4)C[C@@](O)([C@@H](OC(=O)c4cccc(F)c4)[C@H]21)C3(C)C
4. CC(=O)O[C@@]12CO[C@@H]1C[C@H](O)[C@@]1(C)C(=O)[C@H](O)C3=C(C)[C@@H](OC(=O)[C@H](O)[C@@H](NC(=O)OC(C)(C)C(F)(F)F)c4ccccc4)C[C@@](O)([C@@H](OC(=O)c4cccc(F)c4)[C@H]21)C3(C)C

1. 7.37
2. 13.4
3. 6.8
4. 7.62

Give me half-life for each of these compounds, listed below.
1. CC(=O)O[C@@]12CO[C@@H]1C[C@H](O)[C@@]1(C)C(=O)[C@H](O)C3=C(C)[C@@H](OC(=O)[C@H](O)[C@@H](NC(=O)OC(C)(C)C(F)(F)F)c4ccccc4)C[C@@](O)([C@@H](OC(=O)c4ccccc4)[C@H]21)C3(C)C
2. CC(=O)O[C@@]12CO[C@@H]1C[C@H](O)[C@@]1(C)C(=O)[C@H](O)C3=C(C)[C@@H](OC(=O)[C@H](O)[C@@H](NC(=O)OC(C)(C)C(F)(F)F)c4ccc(F)cc4)C[C@@](O)([C@@H](OC(=O)c4ccccc4)[C@H]21)C3(C)C

[9.91, 8.5]
